Each entry below lists one item and its recorded CRF2R Emax % value.
- system.tested: T1, corticotropin releasing factor 2 receptor
- T1 sequence (Q13324 whole entry, species assumed, looked up): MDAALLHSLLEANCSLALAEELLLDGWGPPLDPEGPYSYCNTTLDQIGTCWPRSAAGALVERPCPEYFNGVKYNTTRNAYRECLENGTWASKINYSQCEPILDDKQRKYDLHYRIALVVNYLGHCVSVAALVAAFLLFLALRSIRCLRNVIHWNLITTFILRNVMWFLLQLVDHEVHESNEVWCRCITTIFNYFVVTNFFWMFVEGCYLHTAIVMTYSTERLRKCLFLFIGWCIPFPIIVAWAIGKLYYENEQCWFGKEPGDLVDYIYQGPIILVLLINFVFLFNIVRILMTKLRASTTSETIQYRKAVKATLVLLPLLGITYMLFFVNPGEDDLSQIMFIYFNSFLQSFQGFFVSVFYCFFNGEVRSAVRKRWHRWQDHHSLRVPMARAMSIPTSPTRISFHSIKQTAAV
- measurement.protocol: cell-based or functional assay
Ends that are not written are not given here.
For clarity, give the value followed by its unit.

PSLSIDLPLILLRTLLELEKTQSQRERAEQNARIFARV-NH2 [SEQ ID NO 332]    100%
ZGPPISIDLPHQLLRKMIEIEKQEKEKQQAANNRLLLDTI (C-terminal amide) [SEQ ID NO 212]    100%
ZGPPISIDLPFQLLRKVIEIEKQEKEKQQAANNAQLLAHI (C-terminal amide) [SEQ ID NO 273]    100%
ZGPPISIDLPIFLLRKMIEIEKQEKEKQQAANNALLLATI (C-terminal amide) [SEQ ID NO 298]    98.8%
ZGPPISIDLPTYLLRKMIEIEKQEKEKQQAANNALLLATI (C-terminal amide) [SEQ ID NO 233]    95%

In: Consider the binder ZGPPISIDLPLQLLRKMIEIEKQEKEKQQATTNARLLDTV (C-terminal amide) [SEQ ID NO 246] and give its measured CRF2R Emax %.
Out: 100%

In: Return reported CRF2R Emax %; argument: ZGPPISIDVPYYLLRKVIEIEKQEKEKQQAANNARLLARI (C-terminal amide) [SEQ ID NO 378]
Out: 100%

In: Dear colleague, I am looking for the recorded CRF2R Emax % of the following binder: DNPSLSIDLPLFLLRTLLELEKTQSQRERAEQNARIFARV-NH2 [SEQ ID NO 334]
Out: 93.5%

In: For the binder ZGPPISIDVPLQLLRKVIEIEKQEKEKQQAANNARLLARI (C-terminal amide) [SEQ ID NO 381] , what CRF2R Emax % is on record?
Out: 99%

In: Entry under review: ZGPPISIDLPFQLLRKAIEIEKQEKEKQQAANNALLLDTI (C-terminal amide) [SEQ ID NO 365] . Reported CRF2R Emax %?
Out: 94%

In: # input binder: ZGPPISIDLPQYLLRKMIEIEKQEKEKQQAANNALLLATI (C-terminal amide) [SEQ ID NO 227] ; wanted: its CRF2R Emax %
Out: 95%

In: Fill in the blank: the reported CRF2R Emax % of DNPSLSIDLPLLLLRTLLELEKTQSQRERAEQNARIFARV-NH2 [SEQ ID NO 341] is ____.
Out: 95.5%
